system: HCT-116 colon; assay: NCI tumour cell line growth inhibition, 48 h
Assign TGI to each entry below.

Solved entries:
{"columns": ["chem-smiles", "assay-metric", "val"],
 "data": [
  ["CCC[CH2][Sn]1([CH2]CCC)[O]C(=O)CN=C(C)c2ccccc2[O]1", "TGI", "2.92 µM"],
  ["Clc1ccc(-c2nc3c(-c4ccccc4)nc(-c4ccccc4)cn3c2-c2ccc(Cl)cc2)cc1", "TGI", "> 100 µM"],
  ["CC(=O)c1cc2c(s1)C(=O)c1ccsc1C2=O", "TGI", "1.59 µM"],
  ["CCC1=C[C@@H]2CN(C1)Cc1c([nH]c3ccccc13)[C@@](C(=O)OC)(c1cc3c(cc1OC)N(C)[C@H]1[C@@](O)(C(=O)OC)[C@H](OC(C)=O)[C@]4(CC)C=CCN5CC[C@]31[C@@H]54)C2", "TGI", "> 40.4 µM"]
]}

List the reported TGI of each molecule below.
1. CN(CC(=O)O)CC(=O)O
2. O=C(/C=C/c1ccco1)Nc1ncc(Cc2cccc(C(F)(F)F)c2)s1
3. O=[N+]([O-])c1ccc(Cc2nc3cc4ccccc4cc3[nH]2)cc1C(F)(F)F
4. c1ccc(COCC[P+](c2ccccc2)(c2ccccc2)c2ccccc2)cc1
5. Fc1cc(C2=Nn3c(CNc4ccc(Cl)cc4)nnc3S/C2=C\c2ccc(-c3ccc(Cl)cc3)o2)c(Cl)cc1Cl

> 100 µM
> 32.8 µM
26.8 µM
12.5 µM
> 100 µM

----------
tested on: HOP-62 NSCLC; experiment: NCI tumour cell line growth inhibition, 48 h
assay-metric: TGI (µM)
Give bare numbers, in µM.

Solved entries:
{"columns": ["molecule", "TGI, µM"],
 "data": [
  ["CC(=O)OC1CC2C(C)(C)CCC[C@]2(C)C2=C1C(O)=C(C(C)C)C(=O)C2=O (stereo partly specified)", 4.47],
  ["O=C(NC1CCN(Cc2ccccc2)CC1)c1cccc(I)c1", 30.6],
  ["CCC(=O)N(c1ccccc1)C(C)CN1CCC(O)(c2cccc(C(F)(F)F)c2)CC1 (stereo unspecified)", 42.3]
]}

List the reported TGI of each molecule below.
1. OCC(O)C(O)C(O)C(O)CNCCO/N=C1/C(c2c(O)[nH]c3ccccc23)=Nc2ccccc21 (stereo unspecified)
2. O=c1oc2ccc3ccccc3c2cc1-c1nc(-c2ccc([N+](=O)[O-])cc2)n[nH]1
3. C[C@]12CCCN1CC1=NNC(=O)c3cc(F)cc4[nH]c2c1c34
4. CC(C)(C)[Si](C)(C)OC1[C@@H](O[Si](C)(C)C(C)(C)C)[C@@H](CNC(=O)NC(=O)NC(=O)CCl)O[C@H]1n1cnc2c(NC(=O)Nc3ccccc3)ncnc21 (stereo partly specified)
5. Fc1cc(C2=Nn3c(CNc4ccc(Cl)cc4)nnc3S/C2=C\c2ccc(-c3ccc(Cl)cc3)o2)c(Cl)cc1Cl
6. O=C(/C=C/c1ccco1)Nc1ncc(Cc2cccc(C(F)(F)F)c2)s1
7. COc1ccc(C2=NN(C=O)C(c3ccc(OS(=O)(=O)c4ccc(C)cc4)c(OC)c3)C2)cc1 (stereo unspecified)
8. C=C1C(=O)O[C@@H]2C[C@@H]1CC[C@]1(C)O[C@H]1CC/C(C)=C/CC[C@@]2(C)O

1. 22.9
2. 42
3. 89.4
4. 4.8
5. 91.6
6. 6.32
7. 74
8. 47.7

TGI for c1ccc(COCC[P+](c2ccccc2)(c2ccccc2)c2ccccc2)cc1 ? 32.4

Cited source: PubChem BioAssay (NCI)
